Origin of values: PubChem BioAssay (NCATS)

Experiment: Primary qHTS for inhibitors of nuclear receptor binding SET domain protein 2 (NSD2) in an isogenic RCH-ACV NSD2 p.E1099K mutant (9B) (AID 1645876); note: nearly all actives have a fitted effect of over 70% in size
Conditions: RCH-ACV (leukaemia line) NSD2 E1099K (9B) viability, CellTiter-Glo, 72 h; series mostly up to 44.9 µM
Records with an inconclusive call do not appear. Calls of active or inactive are those of the source. Calls come from the whole dose curve; as a rule, active = well fitted inhibition curve with a large enough effect; inconclusive = small, poorly fitted or top-dose-only effect; inactive = flat fitted curve, though single readings scatter.
Outcome codes: active, inactive

{"compound": "COc1ccc(CCN(C)CCCN2CCc3cc(OC)c(OC)cc3CC2=O)cc1OC", "class-label": "inactive"}
{"compound": "CC(=O)NCCCCCC(=O)O", "class-label": "inactive"}
{"compound": "CN(C)CCC[C@@]1(c2ccc(F)cc2)OCc2cc(C#N)ccc21", "class-label": "inactive"}
{"compound": "C#C[C@]1(O)CC[C@H]2[C@@H]3[C@H](C)CC4=C(CCC(=O)C4)[C@H]3CC[C@@]21C", "class-label": "active"}
{"compound": "Nc1nc(-c2ccccc2)c(Br)c(=O)[nH]1", "class-label": "inactive"}
{"compound": "COc1ccc(C(=O)c2ccccc2O)c(O)c1", "class-label": "inactive"}
{"compound": "Nc1ccc(S(=O)(=O)Nc2cnc3ccccc3n2)cc1", "class-label": "inactive"}
{"compound": "Cc1ccc(O)c([C@H](CCN(C(C)C)C(C)C)c2ccccc2)c1", "class-label": "active"}
{"compound": "CCC(C(=O)OCCOCCN(CC)CC)c1ccccc1 (stereo not drawn)", "class-label": "inactive"}
{"compound": "CCCCCCCCOc1ccc(C(=O)c2ccccc2)c(O)c1", "class-label": "inactive"}
{"compound": "CCC(Cc1c(I)cc(I)c(N)c1I)C(=O)O (stereo not drawn)", "class-label": "inactive"}
{"compound": "CC(=O)O[C@H]1C[C@@H]2CC[C@@H]3[C@H](CC[C@@]4(C)[C@H]3C[C@H]([N+]3(C)CCCCC3)[C@@H]4OC(C)=O)[C@@]2(C)C[C@@H]1N1CCCCC1", "class-label": "inactive"}
{"compound": "CC(=O)Nc1ccc(OC(=O)c2ccccc2OC(C)=O)cc1", "class-label": "inactive"}
{"compound": "O=C(O)CCC(=O)Nc1ccc(S(=O)(=O)Nc2nccs2)cc1", "class-label": "inactive"}
{"compound": "C[N+]12CCC(CC1)C(OC(=O)C(O)(c1ccccc1)c1ccccc1)C2 (stereo not drawn)", "class-label": "inactive"}
{"compound": "COc1ccc2c(c1)c1c3n2CCN(C)C3=NCC1", "class-label": "inactive"}
{"compound": "C[C@@]12C(=O)OC(=O)[C@]1(C)C1CCC2O1", "class-label": "active"}
{"compound": "C=CCN1CCc2nc(N)sc2CC1", "class-label": "inactive"}

----------
Assay: S16 Schwann cell PMP22 intronic element firefly luciferase assay (AID 624032); note: nearly all actives have a fitted effect of over 30% in size; note: potency is the fitted concentration of half-maximal effect
Settings: S16 rat Schwann cells, PMP22 element FLuc, 24 h; series mostly up to 57.5 µM
Records with an inconclusive call do not appear. The source made the active and inactive calls. Calls come from the whole dose curve; as a rule, active = well fitted inhibition curve with a large enough effect; inconclusive = small, poorly fitted or top-dose-only effect; inactive = no such curve, though single readings can be large or run the other way.

{"molecule": "CCOC(=O)c1c(N)sc2c1CCN(Cc1ccccc1)C2", "Potency": "36.1 µM (active)"}
{"molecule": "CC(C)(C)NC[C@H](O)COc1cccc2c1CCCC2=O", "Potency": "inactive"}
{"molecule": "CC(C)CCCC(C)N (stereo unspecified)", "Potency": "inactive"}
{"molecule": "Cc1ccc(S(=O)(=O)NC(=O)NC2CCCC2)cc1", "Potency": "inactive"}
{"molecule": "COc1ccc(C(=O)c2ccccc2O)c(O)c1", "Potency": "inactive"}
{"molecule": "COc1cc(C(=O)NCc2ccc(OCCN(C)C)cc2)cc(OC)c1OC", "Potency": "inactive"}
